inhibition overview
system: Cytochrome P450 2C19 (Homo sapiens)
methodDescription: blockers of cytochrome P450 2C19 activity – biochemical, luminescence, ADME assay, primary screen (AID 778);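 note: plate controls were negative control wells for no effect and 2.5 mM tranylcypromine positive control for full effect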
experimentalContext: CYP2C19 Supersomes, luciferin-H EGE luminescence, 30 min; at 5 µM; active compounds read high
In all, about 96,000 compounds went through this assay and about 20,000 (21%) were called active. The list is a sample of the results.

compound: CSc1sc(C)cc1C1C(C#N)=C(N)N(c2cccnc2)C2=C1C(=O)CCC2 (stereo not given)
system: Cytochrome P450 2C19 (Homo sapiens)
inhibition [%]: 29.4

compound: N#CC1=C(N)Oc2c(sc3ccccc23)C1c1ccco1 (stereo not given)
system: Cytochrome P450 2C19 (Homo sapiens)
inhibition [%]: 22.6

compound: COc1ccc(NC(C)=O)cc1NC(=O)CN1CCN(c2ccccn2)CC1
system: Cytochrome P450 2C19 (Homo sapiens)
inhibition [%]: -7.2

compound: O=C(CSc1nnc(-c2ccoc2)o1)N1CCOCC1
system: Cytochrome P450 2C19 (Homo sapiens)
inhibition [%]: -14.6

compound: CCOC(=O)c1sc(=S)n(-c2cccc(OC)c2)c1N
system: Cytochrome P450 2C19 (Homo sapiens)
inhibition [%]: 31.5

compound: CC(C)C1N=C2c3ccccc3N=C(SCC(=O)c3ccc(O)c(O)c3)N2C1=O (stereo not given)
system: Cytochrome P450 2C19 (Homo sapiens)
inhibition [%]: 16.6

compound: Cc1ccc(S(=O)(=O)NCC(C)NS(C)(=O)=O)cc1 (stereo not given)
system: Cytochrome P450 2C19 (Homo sapiens)
inhibition [%]: 16.9

compound: O=C(NCc1ccccn1)c1cc2ccccc2oc1=O
system: Cytochrome P450 2C19 (Homo sapiens)
inhibition [%]: 1.3

compound: CN(C)CC(O)COc1ccc(C(C)(C)c2ccc(OCC(O)CN(C)C)cc2)cc1 (stereo not given)
system: Cytochrome P450 2C19 (Homo sapiens)
inhibition [%]: -7.2

compound: CCOc1cccc(-c2nnc3sc(COc4ccc(OC)cc4)nn23)c1
system: Cytochrome P450 2C19 (Homo sapiens)
inhibition [%]: 19.8
